Tested on: Human poliovirus 1 strain Sabin
Experiment: Antiviral activity against Poliovirus 1 strain Sabin ATCC VR-1562 infected in Vero 76 cells after 2 days by plaque reduction assays
Assay type: functional, organism-based
Conditions: Enterovirus C, ATCC VR-1562, Vero 76, 48 h
metricName: EC50

Answered cases to consult:
Query: EC50; subject: CC(=O)c1ccc(-c2nc3ccncc3[nH]2)cc1 > 100 µM

Entry Brc1cnc2[nH]c(C3CCCCC3)nc2c1 please > 100 µM

Entry CC(=O)c1ccc(-c2nc3cccnc3[nH]2)cc1 please > 100 µM

Entry c1cnc2[nH]c(-c3ccoc3)nc2c1 please > 100 µM

Entry N#Cc1ccc(-c2nc3ccncc3[nH]2)cc1 please > 100 µM

Entry Nc1c(/N=C/c2ccc([N+](=O)[O-])cc2)cc2cccnc2c1Cl please > 100 µM

Entry c1cnc2[nH]c(C3CCCCC3)nc2c1 please > 100 µM

---
Query: EC50; subject: N#Cc1ccc(-c2nc3cc(Br)cnc3[nH]2)cc1 > 73 µM

###

System: Human immunodeficiency virus 1
Assay: Antiviral activity against HIV-13B infected in MT4 cells assessed as protection from virus-induced cytopathogenicity after 4 days by MTT method
Type: functional, organism-based
Settings: Human immunodeficiency virus 1, 3B, MT4, 96 h
pEC50: −log10 of the molar value.
metricName: pEC50

Answered cases to consult:
Query: pEC50; subject: N#Cc1ccc(-c2nc3ccncc3[nH]2)cc1 < 4.00

Entry Brc1cnc2[nH]c(-c3ccoc3)nc2c1 please 4.70

Entry FC(F)(F)c1ccc(-c2nc3cccnc3[nH]2)cc1 please < 4.00

Entry N#Cc1ccc(/C=N/c2cc3cccnc3c(Cl)c2N)cc1 please < 4.00

Entry Nc1c(/N=C/c2ccc([N+](=O)[O-])cc2)cc2cccnc2c1Cl please < 4.00

Next item in the queue.
Query: pEC50; subject: FC(F)(F)c1ccc(-c2nc3cc(Br)cnc3[nH]2)cc1 < 4.00

###

System: Human poliovirus 1 strain Sabin
Assay: Antiviral activity against Poliovirus 1 strain Sabin ATCC VR-1562 infected in Vero 76 cells after 2 days by plaque reduction assays
Type: functional, organism-based
Conditions: Enterovirus C, ATCC VR-1562, Vero 76, 48 h
pEC50: −log10 of the molar value.
metricName: pEC50

Provide the documented pEC50 with Human poliovirus 1 strain Sabin as the system for CC(=O)c1ccc(-c2nc3cc(Br)cnc3[nH]2)cc1 < 4.30

Entry N#Cc1ccc(/C=N/c2cc3cccnc3c(Cl)c2N)cc1 please < 4.00

Entry N#Cc1ccc(/C=N/c2cc3c(=O)cc[nH]c3c(Cl)c2N)cc1 please < 4.00

---
Provide the documented pEC50 with Human poliovirus 1 strain Sabin as the system for C#C[C@@]1(O)[C@H](O)[C@@H](CO)O[C@H]1n1ccc(N)nc1=O 4.64

Entry FC(F)(F)c1ccc(-c2nc3cc(Br)cnc3[nH]2)cc1 please < 4.00

###

This section presents compounds with their documented CC50 at 96 h values.
Experiment: Cytotoxicity against mock-infected human MT4 cells assessed as reduction in proliferation after 96 hrs by MTT method
Format: cell-based

Query: CC50 at 96 h; subject: N#Cc1ccc(-c2nc3cccnc3[nH]2)cc1 > 100 µM

Entry CC(=O)c1ccc(-c2nc3cc(Br)cnc3[nH]2)cc1 please 28 µM

Entry CC(=O)c1ccc(-c2nc3ccncc3[nH]2)cc1 please > 100 µM

Entry Brc1cnc2[nH]c(-c3ccoc3)nc2c1 please 20 µM

---
Query: CC50 at 96 h; subject: N#Cc1ccc(-c2nc3ccncc3[nH]2)cc1 > 100 µM

Entry Brc1cnc2[nH]c(C3CCCCC3)nc2c1 please > 100 µM

Entry FC(F)(F)c1ccc(-c2nc3cc(Br)cnc3[nH]2)cc1 please > 100 µM

###

This section presents compounds with their documented EC50 values.
System: Coxsackievirus B5
Assay: Antiviral activity against Coxsackievirus B5 Faulkner (ATCC VR-185) infected in Vero 76 cells after 3 days by plaque reduction assays
Format: functional, organism-based
Details: Enterovirus B, Vero 76, 72 h

Answered cases to consult:
Query: EC50; subject: N#Cc1ccc(/C=N/c2cc3c(=O)cc[nH]c3c(Cl)c2N)cc1 > 100 µM

Entry Nc1c(/N=C/c2ccc([N+](=O)[O-])cc2)cc2cccnc2c1Cl please > 100 µM

Entry FC(F)(F)c1ccc(-c2nc3cc(Br)cnc3[nH]2)cc1 please > 100 µM

---
Query: EC50; subject: N#Cc1ccc(-c2nc3cccnc3[nH]2)cc1 > 100 µM

Entry N#Cc1ccc(-c2nc3cc(Br)cnc3[nH]2)cc1 please > 73 µM

Entry CC(=O)c1ccc(-c2nc3ccncc3[nH]2)cc1 please > 100 µM

Entry Nc1c(/N=C/c2ccc(C(F)(F)F)cc2)cc2cccnc2c1Cl please 29 µM

Entry N#Cc1ccc(-c2nc3ccncc3[nH]2)cc1 please > 100 µM

Entry Nc1c(/N=C/c2ccc(C(F)(F)F)c([N+](=O)[O-])c2)cc2cccnc2c1Cl please 16 µM

Entry Brc1cnc2[nH]c(-c3ccoc3)nc2c1 please > 40 µM

Entry CC(=O)c1ccc(-c2nc3cccnc3[nH]2)cc1 please > 100 µM

Entry CC(=O)c1ccc(-c2nc3cc(Br)cnc3[nH]2)cc1 please > 50 µM

Entry Brc1cnc2[nH]c(C3CCCCC3)nc2c1 please 20 µM

Entry O=[N+]([O-])c1ccc(-c2nc3cc4cccnc4c(Cl)c3[nH]2)cc1 please > 100 µM

Entry c1cnc2[nH]c(C3CCCCC3)nc2c1 please 86 µM

Entry FC(F)(F)c1ccc(-c2nc3cccnc3[nH]2)cc1 please 18 µM

Entry N#Cc1ccc(/C=N/c2cc3cccnc3c(Cl)c2N)cc1 please 46 µM

Entry c1cnc2[nH]c(-c3ccoc3)nc2c1 please > 100 µM

###

This section presents compounds with their documented CC50 at 72 h values.
Assay: Cytotoxicity against mock-infected hamster BHK21 cells assessed as reduction in proliferation after 72 hrs by MTT method
Format: cell-based, Mesocricetus auratus, BHK-21

Answered cases to consult:
Query: CC50 at 72 h; subject: Nc1c(/N=C/c2ccc(C(F)(F)F)c([N+](=O)[O-])c2)cc2cccnc2c1Cl > 100 µM

Entry Nc1c(/N=C/c2ccc(C(F)(F)F)cc2)cc2cccnc2c1Cl please > 25 µM

Entry CC(=O)c1ccc(-c2nc3cccnc3[nH]2)cc1 please > 100 µM

Entry N#Cc1ccc(/C=N/c2cc3cccnc3c(Cl)c2N)cc1 please > 100 µM

Entry FC(F)(F)c1ccc(-c2nc3cccnc3[nH]2)cc1 please > 100 µM

---
Query: CC50 at 72 h; subject: N#Cc1ccc(-c2nc3ccncc3[nH]2)cc1 > 100 µM

###

Experiment: Cytotoxicity against mock-infected human MT4 cells assessed as reduction in proliferation after 96 hrs by MTT method
Format: cell-based
This section presents compounds with their documented CC50 at 96 h values.
Supply the numeric figure in µM, leaving out any unit text.

Query: CC50 at 96 h; subject: N#Cc1ccc(/C=N/c2cc3cccnc3c(Cl)c2N)cc1 46

Entry Nc1c(/N=C/c2ccc(C(F)(F)F)c([N+](=O)[O-])c2)cc2cccnc2c1Cl please 20

Entry Nc1c(/N=C/c2ccc(C(F)(F)F)cc2)cc2cccnc2c1Cl please 49

---
Query: CC50 at 96 h; subject: N#Cc1ccc(-c2nc3cc(Br)cnc3[nH]2)cc1 53

Entry Nc1c(/N=C/c2ccc([N+](=O)[O-])cc2)cc2cccnc2c1Cl please 53

###

This section presents compounds with their documented CC50 values.
Experiment: Cytotoxicity against mock-infected African green monkey Vero 76 cells assessed as reduction in proliferation after 48 to 96 hrs by MTT method
Assay type: cell-based
Details: chlorocebus sabaeus, Vero 76 cells (mock-infected)

Query: CC50; subject: c1cnc2[nH]c(C3CCCCC3)nc2c1 > 100 µM

Entry N#Cc1ccc(/C=N/c2cc3c(=O)cc[nH]c3c(Cl)c2N)cc1 please > 100 µM

Entry N#Cc1ccc(-c2nc3cccnc3[nH]2)cc1 please > 100 µM

---
Query: CC50; subject: Nc1nc2c(ncn2COCCO)c(=O)[nH]1 > 100 µM

Entry N#Cc1ccc(/C=N/c2cc3cccnc3c(Cl)c2N)cc1 please > 100 µM

Entry O=c1cnn([C@@H]2O[C@H](CO)[C@@H](O)[C@H]2O)c(=O)[nH]1 please ≥ 12.5 µM

Entry FC(F)(F)c1ccc(-c2nc3cc(Br)cnc3[nH]2)cc1 please > 100 µM

Entry CC(=O)c1ccc(-c2nc3cccnc3[nH]2)cc1 please > 100 µM

Entry N#Cc1ccc(-c2nc3ccncc3[nH]2)cc1 please > 100 µM

Entry c1cnc2[nH]c(-c3ccoc3)nc2c1 please > 100 µM

Entry CC(=O)c1ccc(-c2nc3ccncc3[nH]2)cc1 please > 100 µM

Entry Brc1cnc2[nH]c(C3CCCCC3)nc2c1 please > 100 µM
